assayed_target: RSV fusion glycoprotein (RSV F) on RSV-A2 virus (respiratory syncytial virus, UniProt P03420 26-574)
assay_details: cell-based or functional assay
Listing of recorded Neutralization IC50 (RSV subtype A) by entry.
quantity_kind: Neutralization IC50 (RSV subtype A)

>>> result("ADI-41438 (antibody, V domains shown) VH: QVQLVQSGAEMRRPGSSVRLPCKASGYTFVSHTIVWVRQAPGQGLEWMGGIIPSLRTPNYAQNFQDRLTITADESARTAYMELSSLTSNDTAVYYCARETFQGGYYLDYWGQGTLVTVSS VL: EIVMTQSPGTLSVSPGDTAALSCRASQSVGRNLAWYQQKPGQAPRLLIFGASTRAADIPGRFSGSGSGTEFTLTITSLQSEDFAVYYCQQYNKWPPYTFGQGTKVEIK")
"> 25 µg/mL"
>>> result("ADI-41405 (antibody, V domains shown, IgG1) VH: EVQLLESGGGLVQPGGSLRLSCAASGFSFSIYSMNWVRQAPGKGLEWISYITSTGSPTYYADSVKGRFTISRDNAKNSLYLQMSSLRAEDTAVYYCVTYCSSSSCPAEFDYWGQGTLVTVSS VL: EIVLTQSPATLSLSPGERATLSCRASQSVNSYLAWYQQKPGQAPRLLIYDASNRATGIPARFSGSGSGTDFTLTISSLEAEDFAVYYCQHRNNWPALTFGGGTKVEIK")
"> 25 µg/mL"
>>> result("ADI-41442 (antibody, V domains shown, IgG1; also called Ab 726) VH: EVQLLESGGGLVQPGRSLRLSCAASGFTFDDYAMHWVRQAPGKGLEWVSGISWHSGSIVYADSVKGRFTISRDNAKNSLYLQMSSLRAEDTALYYCVKDHYNWNDNPHFHYGLDVWGQGTTVTVSS VL: EIVLTQSPATLSVSPGERATLSCRASQSVISNLAWYQQKPGQAPRLFIYGASTRATGIPARFSGSGSGTEFTLTISSLQSEDFAVYFCQQYNNWPITFGQGTRLEIK")
"0.04 µg/mL"
>>> result("ADI-41384 (antibody, V domains shown, IgG1; also called Ab 680) VH: QVQLVQSGAEVKKPGSSVRVSCKASGGTFSRYAISWVRQAPGQGLEWMGGVIPRFDKTNYAQKFQGRVMITADKSTSTAYMELSSLRSDDTAVYYCAGDRLDTKITHTWYGFGDFWGQGTTVTVSS VL: EIVLTQSPGTLSLSPGERATLSCRASQSVTSNFLAWYQQRPGQAPRLLIYGASVRAIDIPDRFSGSGSGTDFTLTISRLEPEDFAVYYCQQYGDPFRTFGQGTKVEIK")
"> 25 µg/mL"
